These entries and their values trace back to ChEMBL document CHEMBL5338828.

- System: OVCAR-3
- Procedure Text: Cytotoxicity against human OVCAR-3 cells assessed as inhibition of cell growth incubated for 5 days by CellTiter-Glo luminescence assay
- Type: functional, cell-based
- Recorded Conditions: OVCAR-3, 120 h
pIC50: −log10 of the molar value.

>  <Compound Smiles>
CC(C)[C@H]1C(=O)OC[C@@H](NC(=O)c2nc3ccccc3cc2O)C(=O)N2CCCC[C@H]2C(=O)NCC(=O)N(C)CC(=O)N(C)[C@@H](C(C)C)C(=O)OC[C@@H](NC(=O)c2nc3ccccc3cc2O)C(=O)N2CCCC[C@H]2C(=O)NCC(=O)N(C)CC(=O)N1C

>  <pIC50>
9.00

$$$$
>  <Compound Smiles>
CC(C)[C@H]1C(=O)NC[C@@H](NC(=O)c2nc3ccccc3cc2O)C(=O)N2CCCC[C@H]2C(=O)NCC(=O)N(C)CC(=O)N(C)[C@@H](C(C)C)C(=O)OC[C@@H](NC(=O)c2nc3ccccc3cc2O)C(=O)N2CCCC[C@H]2C(=O)NCC(=O)N(C)CC(=O)N1C

>  <pIC50>
9.22

$$$$
>  <Compound Smiles>
CC(C)[C@H]1COC[C@@H](NC(=O)c2nc3ccccc3cc2O)C(=O)N2CCCC[C@H]2C(=O)NCC(=O)N(C)CC(=O)N(C)[C@@H](C(C)C)C(=O)NC[C@@H](NC(=O)c2nc3ccccc3cc2O)C(=O)N2CCCC[C@H]2C(=O)NCC(=O)N(C)CC(=O)N1C

>  <pIC50>
8.54

$$$$
>  <Compound Smiles>
CC(C)[C@H]1C(=O)NC[C@@H](NC(=O)c2nc3ccccc3cc2O)C(=O)N2CCCC[C@H]2C(=O)NCC(=O)N(C)CC(=O)N(C)[C@@H](C(C)C)C(=O)NC[C@@H](NC(=O)c2nc3ccccc3cc2O)C(=O)N2CCCC[C@H]2C(=O)NCC(=O)N(C)CC(=O)N1C

>  <pIC50>
7.74

$$$$
